Overview of reported cell viability across a group of compounds:
System: MOLM14;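 also: after 48 h exposure read by CellTiter-Glo luminescence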
Assay: cell viability relative to vehicle control; higher = less cytotoxic
Conditions: 10 µM; SRSF2 genotype: SRSF2 P95H/wt
Answer with a number only, understood to be in %.

Record excerpt, results attached:
- Compound: "Cc1nc(N)sc1-c1ccnc(Nc2ccc(N3CCOCC3)cc2)n1"
  Endpoint Label: "cell viability"
  Readout Value: 5.52
- Compound: "CCOC(=O)Nc1cc(-c2ccc(C)c(NS(C)(=O)=O)c2)nn2c(C)nnc12"
  Endpoint Label: "cell viability"
  Readout Value: 3.2
- Compound: "CCC(=O)O[C@]1(C(=O)CCl)[C@@H](C)C[C@H]2[C@@H]3C[C@H](F)C4=CC(=O)C=C[C@]4(C)[C@@]3(F)[C@@H](O)C[C@@]21C [Halobetasol Propionate]"
  Endpoint Label: "cell viability"
  Readout Value: 76.3

Supply measured cell viability of O=C(NC1CCN(CCCCC2(C(=O)NCC(F)(F)F)c3ccccc3-c3ccccc32)CC1)c1ccccc1-c1ccc(C(F)(F)F)cc1 [Lomitapide] in your reply. 0.37
